# STUDY SYSTEM: Neu5Ac(a2-3)Gal(b1-3)[Neu5Ac(a2-3)Gal(b1-4)]GlcNAc
# PROTOCOL DESCRIPTION: glycan array binding signal (z-score within array); higher = stronger binding
# TEST CONTEXT: glycan notation: IUPAC condensed, linker removed
Shown is part of a subset that was picked to be rich in the strongest signals.
ATTRIBUTE MEASURED: glycan array binding signal (z-score)

BINDER: chitinase 3-like protein 2 (Homo sapiens) (protein) YKLVCYFTQWSQDRQEPGKFTPENIDPFLCSHLIYSFASIENNKVIIKDKSEVMLYQTINSLKTKNPKLKILLSIGGYLFGSKGFHPMVDSSTSRLEFINSIILFLRNHNFDGLDVSWIYPDQKENTHFTVLIHELAEAFQKDFTKSTKERLLLTAGVSAGRQMIDNSYQVEKLAKDLDFINLLSFDFHGSWEKPLITGHNSPLSKGWQDRGPSSYYNVEYAVGYWIHKGMPSEKVVMGIPTYGHSFTLASAETTVGAPASGPGAAGPITESSGFLAYYEICQFLKGAKITRLQDQQVPYAVKGNQWVGYDDVKSMETKVQFLKNLNLGGAMIWSIDMDDFTGKSCNQGPYPLVQAVKRSLGSL
glycan array binding signal (z-score): -0.116
//
BINDER: Gal 2 (Canis lupus) (protein) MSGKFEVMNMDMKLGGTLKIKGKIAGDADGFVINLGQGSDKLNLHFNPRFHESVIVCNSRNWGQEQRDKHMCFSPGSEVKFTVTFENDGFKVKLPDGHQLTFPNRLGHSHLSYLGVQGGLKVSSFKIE
glycan array binding signal (z-score): -0.369

### Prompt Give the measured glycan array binding signal (z-score) of CVNH0 (Neurospora crassa), Q7S6U4 (protein) GSHIGPYMSFHVTAEDARIEVRDNRTILFARLRREDGEWNDASYELDQIIGNNDGHFQWGGQNFTETAEDIRFHPKEGAAEQPILRARLRDCNGEFHDRDVNLTEIVENVNGEFQAKF .
### Response -0.411

### Prompt Give the measured glycan array binding signal (z-score) of UDA (Urtica dioica), P11218 (protein) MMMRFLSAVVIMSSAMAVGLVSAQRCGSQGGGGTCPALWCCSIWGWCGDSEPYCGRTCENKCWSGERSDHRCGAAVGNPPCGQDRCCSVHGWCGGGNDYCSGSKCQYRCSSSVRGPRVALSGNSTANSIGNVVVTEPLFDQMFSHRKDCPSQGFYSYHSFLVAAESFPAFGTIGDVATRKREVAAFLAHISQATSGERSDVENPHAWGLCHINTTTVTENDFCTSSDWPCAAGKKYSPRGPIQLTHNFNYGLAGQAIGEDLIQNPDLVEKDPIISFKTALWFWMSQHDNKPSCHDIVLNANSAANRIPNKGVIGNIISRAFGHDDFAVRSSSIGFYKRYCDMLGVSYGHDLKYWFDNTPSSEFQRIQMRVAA .
### Response -0.25

### Prompt Give the measured glycan array binding signal (z-score) of Strep tagII-anxA1 (Homo sapiens), P04083 (protein) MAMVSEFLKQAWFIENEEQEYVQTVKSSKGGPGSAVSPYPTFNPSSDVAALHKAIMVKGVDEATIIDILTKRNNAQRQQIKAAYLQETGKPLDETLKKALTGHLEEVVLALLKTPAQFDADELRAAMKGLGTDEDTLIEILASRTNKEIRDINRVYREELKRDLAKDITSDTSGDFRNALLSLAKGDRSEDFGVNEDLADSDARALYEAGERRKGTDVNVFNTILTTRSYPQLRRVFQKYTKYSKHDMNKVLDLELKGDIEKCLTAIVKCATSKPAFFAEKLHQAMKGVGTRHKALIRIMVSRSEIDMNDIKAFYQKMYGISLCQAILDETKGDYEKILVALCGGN .
### Response -0.763
